- measured.on: pooled human IgG
readout.kind: Enzyme Activity Endpoint Assay: IgG (ng/µL)
Reply with just the number (in ng/µL).

# annotated cases, reported Enzyme Activity Endpoint Assay: IgG shown
{"columns": ["protein", "obs.value"],
 "data": [
  ["PRT-36 (protein) MANQEIRYSEVTPYHVTSVWTKGVTPPANFTQGEDVFHAPYVANQGWYDITKTFNGKDDLLCGAATAGNMLHWWFDQNKDQIKRYLEEHPEKQKINFNGEQMFDVKEAIDTKNHQTDSKLFEYFKEKAFPYLSTKHLGVFPDHVIDMFINGYRLSLTNHGPTPVKEGSKDPRGGIFDAVFTRGDQSKLLTSRHDFKEKNLKEISDLIKKELTEGKALGLSHTYANVRINHVINLWGADFDSNGNLKAIYVTDSDSNASIGMKKYFVGVNSAGKVAISAKEIKEDNIGAQVLGLFTLSTGQDSWNQTN", 15],
  ["PRT-592 (protein) MANQEIRYSEETPSTITSVWTKGVTPPTDFIQNEDVLHAPYIANQGWYDITKTFNGKDDLLCGAATAGNMLHWWFDQNKEQIENYLKKHPEKQKINFNGEQMFDVKEAIDTKNSQTDSALFEYFKDKAFPYLSTKHLGVFPDHVIDMFINGYRLSLTNHGPTPVKRGTKDPRGGIFDAVFTRGDQSKLLTSRHDFKEKTLNEISDLIKQELTEGKALGLSHTYANVRINHVINLWGADFNAEGNLEAIYVTDSDSNASIGMKKYYVGVNSAGKVAISAKEIEGDNIGAQVLGLFTLSTGQDIWNQTNLEHHHHHH", 0]
]}

Would you kindly share the measured Enzyme Activity Endpoint Assay: IgG for PRT-569 (protein) MANQEIRYSKATPSHITSVWTKGVTPPEQFIYNEDVLHAPYIANQGWYDITKTFNGKDDLLCGAATAGNMLHWWFDQNKEQIENYLKKHPEKQKINFNGEQMFDVKEAIDTKDSQTNSALFSYFKDKAFPYLSTKHLGVFPDHVIDMFINGYRLSLTNHGPTPVKEQTKDPRGGIFDAVFTRGDQSKLLTSRHDFKEKTLNEISQLIKQELTEGKALGLSHTYANVRINHVINLWGADFNAEGNLEAIYVTDSDSNASIGMKKYYVGVNSAGKVAISAKEIEGDNIGAQVLGLFTLSTGQDIWQQTNLEHHHHHH ?
0

Okay, and PRT-14 (protein) MANQEIRYSEVTPYTVTSVWTKGVTPPADFTQGEDVFHAPYIANQGWYDITKTFNGKDDLLCGAATAGNMLHWWFDQNKEQIERYLKKHPEKQKINFNGEQMFDVKEAIDTKDSQTDSELFEYFKEKAFPYLSTKHLGVFPDHVLDMFINGYRLSLTNHGPTPVKEGSKDPRGGIFDAVFTRGDQSKLLTNRHDFKEKTLSEISDLIKKELTEGKALGLSHTYANVRINHVINLWGADFDSEGNLEAIYVTDSDSNASIGMKKYFVGVNSAGKVAISAKEIKEDNIGAQVLGLFTLSTGQDIWNQTN ?
13
